Entries and their pEC50
# target-system: T1, hu (human) BCMA ECD His (ACRO, BCA-H522y) (human, UniProt Q02223 1-54)
# T1 chain: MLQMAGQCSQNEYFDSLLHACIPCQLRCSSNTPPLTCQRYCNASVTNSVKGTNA
# test-method-notes: ELISA
pEC50 here is simply -log10 of the concentration when that concentration is written in mol/L.

In the examples that follow, each entry is paired with its recorded pEC50.
hu VH2-VL1 (antibody, V domains shown) VH: QVQLVQSGAEVKKPGASVKMSCKASGYTFTSYVVHWVRQAPGQGLEWIGYIIPYNDDTKYNEKFKGRVTLTSDKSTSTAYMELSSLRSEDTAVYYCARWDYDDGYFDYWGQGTTVTVSS VL: DVVMTQSPLSLPVTLGQPASISCRSSQSLLHSNGNTYLHWYLQKPGQSPQLLIYKVSNRFSGVPDRFSGSGSGTDFTLKISRVEAEDVGVYFCSQITHIPFTFGQGTKLEIK | 10.30
5E2 (antibody, V domains shown) VH: EVQLQQSGPELIKPGASVKMSCKASGYTFTSYVVHWVKQKPGQGLEWIGYIIPYNDDTKYNEKFKGKATLTSDKSSSTAYMELSSLTSEDSAVYYCARWDYDDGYFDYWGQGTTLTVSS VL: DVVMTQTPLSLPVTLGDQASISCRSSQSLLHSNGNTYLHWYLQKPGQSPKLLIYKVSNRFSGVPDRFSGSGSGTDFTLKISRVEAEDLGVYFCSQITHIPFTFGSGTKLEIKR | 10.27
hu VH1-VL1 (antibody, V domains shown) VH: QVQLVQSGAEVKKPGASVKMSCKASGYTFTSYVVHWVRQAPGQGLEWIGYIIPYNDDTKYNEKFKGKATLTSDKSSSTAYMELSSLRSEDTAVYYCARWDYDDGYFDYWGQGTTVTVSS VL: DVVMTQSPLSLPVTLGQPASISCRSSQSLLHSNGNTYLHWYLQKPGQSPQLLIYKVSNRFSGVPDRFSGSGSGTDFTLKISRVEAEDVGVYFCSQITHIPFTFGQGTKLEIK | 10.32

Q: What does the record list as pEC50 for hu VH1-VL2 (antibody, V domains shown) VH: QVQLVQSGAEVKKPGASVKMSCKASGYTFTSYVVHWVRQAPGQGLEWIGYIIPYNDDTKYNEKFKGKATLTSDKSSSTAYMELSSLRSEDTAVYYCARWDYDDGYFDYWGQGTTVTVSS VL: DVVMTQTPLSLSVTPGQPASISCKSSQSLLHSNGNTYLHWYLQKPGQSPQLLIYKVSNRFSGVPDRFSGSGSGTDFTLKISRVEAEDVGVYFCSQITHIPFTFGQGTKLEIK ?
A: 10.69

Q: Fill in the blank: the reported pEC50 of hu VH1-VL3 (antibody, V domains shown) VH: QVQLVQSGAEVKKPGASVKMSCKASGYTFTSYVVHWVRQAPGQGLEWIGYIIPYNDDTKYNEKFKGKATLTSDKSSSTAYMELSSLRSEDTAVYYCARWDYDDGYFDYWGQGTTVTVSS VL: DIVMTQTPLSLSVTPGQPASISCKSSQSLLHSNGNTYLHWYLQKPGQPPQLLIYKVSNRFSGVPDRFSGSGSGTDFTLKISRVEAEDVGVYYCSQITHIPFTFGQGTKLEIKR is ____.
A: 10.26
